- Tested on: HCT116
- Assay Comment: Cell viability assay (MTT), HCT116
- Format: cell-based, human
- Measurement Context: 10% FBS, 6-day treatment, 1% DMSO, dihydrochloride

- Molecule: "Cl.Cl.O=c1cc(CN2CCOCC2)occ1OCCCCCSc1ccnc2cc(C(F)(F)F)ccc12 [EHT 1864, dihydrochloride]"
  IC50 [µM]: 2.7

====

- Test system: HCT116
- Assay Comment: Cell viability assay (MTT), HCT116
- Format: cell-based, human
- Measurement Context: 10% FBS, 16-hours treatment, 1% DMSO
Measured Parameter: IC50

- Compound: "COc1cc2c(cc1O)CC[C@@H]1[C@@H]2CC[C@]2(C)[C@@H](O)CC[C@@H]12 [2ME, 2-Methoxyestradiol, reference compound]"
  Experimental System: "HCT116"
  Reported Measurement: "128 µM"

====

- Molecule: "O=c1cc(CN2CCCCC2)occ1OCCCCCSc1ccnc2cc(C(F)(F)F)ccc12"
  melting point (°C): 108.9
- Molecule: "CCN(CC)Cc1cc(=O)c(OCCCCCSc2ccnc3cc(C(F)(F)F)ccc23)co1"
  melting point (°C): 71.2
- Molecule: "O=c1cc(COC2CCCCO2)occ1OCCCCCCSc1ccnc2cc(C(F)(F)F)ccc12 (stereo not drawn)"
  melting point (°C): 67.8
- Molecule: "CC(C)(C)OC(=O)N1CCN(Cc2cc(=O)c(OCCCCCOc3ccnc4cc(Cl)ccc34)co2)CC1"
  melting point (°C): 130.2
- Molecule: "O=c1cc(CCl)occ1OCCCCCSc1ccnc2cc(C(F)(F)F)ccc12"
  melting point (°C): 38.2
- Molecule: "O=c1cc(COC2CCCCO2)occ1OCCCCCCCCSc1ccnc2cc(C(F)(F)F)ccc12 (stereo not drawn)"
  melting point (°C): 66.1
- Molecule: "Cl.Cl.Cl.O=c1cc(CN2CCNCC2)occ1OCCCCCOc1ccnc2cc(Cl)ccc12"
  melting point (°C): 164.7
- Molecule: "CC(=O)N1CCN(Cc2cc(=O)c(OCCCCCSc3ccnc4cc(C(F)(F)F)ccc34)co2)CC1"
  melting point (°C): 99.5
- Molecule: "CN1CCN(Cc2cc(=O)c(OCCCCCOc3ncnc4ccccc34)co2)CC1"
  melting point (°C): 78.2

====

Entries and their melting point
Measured Parameter: melting point

- Molecule: "O=c1cc(COC2CCCCO2)occ1OCCCCSc1ccnc2cc(C(F)(F)F)ccc12 (stereo not drawn)"
  Measured Parameter: "melting point"
  Reported Measurement: "97.3 °C (dec.)"
- Molecule: "O=c1cc(CO)occ1OCCCCCSc1ccnc2cc(C(F)(F)F)ccc12"
  Measured Parameter: "melting point"
  Reported Measurement: "133.2 °C (dec.)"
- Molecule: "COCOCc1cc(=O)c(OCCCCCSc2ccnc3cc(C(F)(F)F)ccc23)co1"
  Measured Parameter: "melting point"
  Reported Measurement: "122.1 °C (dec.)"

Provenance of the data: patent US7514432B2
